- Study Target: WD repeat-containing protein 5 (Homo sapiens, UniProt P61964)
IC50 less than 1 µM is Criterion met; IC50 greater than or equal to 1 µM is Criterion not met.

// below: answered molecules
                              record_smiles     assigned_label
0  CN1CCN(c2ccc(-c3ccc([N+](=O)[O-])cc3)cc2NC(=O)c2cccc([N+](=O)[O-])c2)CC1      Criterion met
1  CC(=O)Nc1cc(C(=O)Nc2cc(-c3ccc(N)cc3)ccc2N2CCN(C)CC2)c(Cl)c(C)c1F  Criterion not met
2  CCC(=O)Nc1ccc(-c2ccc(N3CCN(C)CC3)c(NC(=O)c3cc(N)c(F)c(C)c3Cl)c2)cc1      Criterion met
3  Cc1c(F)ccc(C(=O)Nc2cc([N+](=O)[O-])ccc2NCCCn2ccnc2)c1Cl  Criterion not met
4  Cc1c(F)c(N)cc(C(=O)Nc2cc(-c3ccc(NC(=O)CNC(=O)OC(C)(C)C)cc3)ccc2N2CCN(C)CC2)c1Cl  Criterion not met

-- ask Does the reported IC50 of the following molecule sit strictly below 1 µM? Cc1c(F)ccc(C(=O)Nc2cc([N+](=O)[O-])ccc2N2CCN(c3ccc(F)cc3)CC2)c1Cl
-- reply Criterion not met

-- ask Would you kindly verify if IC50 of CC(=O)Nc1cc(C(=O)Nc2cc(-c3ccncc3)ccc2N2CCN(C)CC2)c(Cl)c(C)c1F is strictly less than 1 µM?
-- reply Criterion not met

-- ask Is 1 µM strictly greater than the molecule's reported IC50? molecule: Cc1c(F)c([N+](=O)[O-])cc(C(=O)Nc2cc(-c3ccncc3)ccc2N2CCN(C)CC2)c1Cl
-- reply Criterion met

----------
- Study Target: WD repeat-containing protein 5 (Homo sapiens)
Experimental Endpoint: pIC50
Friendly reminder that pIC50 comes from taking -log10 of the concentration in mol/L.

Solved cases (5 shown):
>>> print(df.to_string())
                              record_smiles                              study_target   val
0  Cc1c(F)c(N)cc(C(=O)Nc2cc(-c3ccc(NC(=O)c4ccccc4)cc3)ccc2N2CCN(C)CC2)c1Cl  WD repeat-containing protein 5 (Homo sapiens)  6.37
1  Cc1c(F)c([N+](=O)[O-])cc(C(=O)Nc2cc(-c3ccc([N+](=O)[O-])cc3)ccc2N2CCN(C)CC2)c1Cl  WD repeat-containing protein 5 (Homo sapiens)  6.54
2  CC(=O)Nc1ccc(-c2ccc(N3CCN(C)CC3)c(NC(=O)c3cc(N)c(F)c(C)c3Cl)c2)cc1  WD repeat-containing protein 5 (Homo sapiens)  7.15
3  Cc1c(F)c(N)cc(C(=O)Nc2cc(-c3ccncc3)ccc2N2CCN(C)CC2)c1Cl  WD repeat-containing protein 5 (Homo sapiens)  7.74
4  Cc1c(F)c(N)cc(C(=O)Nc2cc(-c3ccc(NC(=O)CCN)cc3)ccc2N2CCN(C)CC2)c1Cl  WD repeat-containing protein 5 (Homo sapiens)  7.30

-- ask Checklist item: pIC50 tested on WD repeat-containing protein 5 (Homo sapiens), entry Cc1c(F)c(N)cc(C(=O)Nc2cc(-c3ccc(NC(=O)C4CC4)cc3)ccc2N2CCN(C)CC2)c1Cl , value?
-- reply 7.12

----------
- Study Target: MLL1/ASH2L/RBBP5/WDR5 complex (Homo sapiens, UniProt P61964+Q03164+Q15291+Q9UBL3)
- Method: Inhibition of recombinant MLL1/ASH2L/RBBP5/WDR5 complex histone methyltransferase activity (unknown origin) by AlphaScreen assay
// pIC50 lookup, one value per entry
In textbook form, pIC50 equals minus log to base ten of the concentration in mol/L.

>>> print(df.to_string())
                              record_smiles                              study_target   val
0  Cc1c(F)c(N)cc(C(=O)Nc2cc(-c3ccc(NC(=O)C4CCNCC4)cc3)ccc2N2CCN(C)CC2)c1Cl  MLL1/ASH2L/RBBP5/WDR5 complex (Homo sapiens, UniProt P61964+Q03164+Q15291+Q9UBL3)  6.52

Please turn your attention to the following entry.
-- ask What does the record list as pIC50 for Cc1c(F)c(N)cc(C(=O)Nc2cc(-c3ccc(N)cc3)ccc2N2CCN(C)CC2)c1Cl ?
-- reply 5.78
